Cited source: patent US5998142

- TGT: bradykinin, N-bromoacetylated (BrBK) (UniProt P01042 P01042:381-389)
- Sequence (P01042 whole entry, looked up, one chain of several): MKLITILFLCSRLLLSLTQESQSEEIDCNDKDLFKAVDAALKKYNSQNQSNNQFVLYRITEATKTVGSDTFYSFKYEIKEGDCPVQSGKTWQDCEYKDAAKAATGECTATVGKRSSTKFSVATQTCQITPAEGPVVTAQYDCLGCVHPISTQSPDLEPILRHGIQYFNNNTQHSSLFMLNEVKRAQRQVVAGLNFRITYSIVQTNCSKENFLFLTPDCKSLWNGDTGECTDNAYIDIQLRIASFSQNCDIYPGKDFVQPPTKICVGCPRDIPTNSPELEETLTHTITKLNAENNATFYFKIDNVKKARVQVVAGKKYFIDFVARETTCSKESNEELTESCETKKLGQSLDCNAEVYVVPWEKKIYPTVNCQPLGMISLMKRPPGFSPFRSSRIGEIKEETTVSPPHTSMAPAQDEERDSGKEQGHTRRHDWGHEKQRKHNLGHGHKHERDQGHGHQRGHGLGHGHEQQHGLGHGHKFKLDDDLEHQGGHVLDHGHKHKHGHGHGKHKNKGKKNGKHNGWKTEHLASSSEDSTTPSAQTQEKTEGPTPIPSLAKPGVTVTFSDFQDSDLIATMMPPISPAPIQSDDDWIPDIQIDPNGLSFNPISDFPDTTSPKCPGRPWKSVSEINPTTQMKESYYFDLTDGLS
- PROTOCOL DETAILS: kobs covalent reaction, APM gel, 0 C, 5 mM MgCl2
- ASSAY CONTEXT: protein: synthetic; tags: synthetic peptide, N-terminal bromoacetyl
So basically: is activity under 0.002 s⁻¹? Then 1.0. Not under? Then 0.0.

> print(dat)
                                     binder  class.assignment
1  12.6 (ssRNA, 5'-GMPS) RNA: GGGAGCUCAGAAUAAACGCUCAAGCGGUAACAUGCUGGAUCUCAGGAAACCGCUUCGACAUGAGGCCCGGAUCCGGC               0.0
2  12.22 (ssRNA, 5'-GMPS) RNA: GGGAGCUCAGAAUAAACGCUCAAUGCCACUUUUGUUCGGAUCUUAGGAAGGCAUUCGACAUGAGGCCCGGAUCCGGC               1.0
3  12.47 (ssRNA, 5'-GMPS) RNA: GGGAGCUCAGAAUAAACGCUCAAUGUGUGAGUGGAUCCGUUCCCCGCCUGGUGUUCGACAUGAGGCCCGGAUCCGGC               1.0
4  12.45 (ssRNA, 5'-GMPS) RNA: GGGAGCUCAGAAUAAACGCUCAAGCGGUAACAUGCUGGAUCUCAGGAAACCGUUUCGACAUGAGGCCCGGAUCCGGC               0.0
5  12.24 (ssRNA, 5'-GMPS) RNA: GGGAGCUCAGAAUAAACGCUCAACGUCAGCGGAUCUCCAUUGCGUUAUACGGGUUCGACAUGAGGCCCGGAUCCGGC               1.0
